Test system: Saccharomyces cerevisiae;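 note: PSI is a weighted mean of sequencing reads over stability bins, variants kept only with over 10 reads, mCherry proximal and sfGFP distal, peptide attached via GGGS linker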
Assay: protein stability index of tFT-peptide fusion (C-terminal peptide) (PSI (0-1 scale)); higher = more stable (slower turnover)
Details: genetic background: wild type; temperature: 30 C
Each entry falls in a class defined on protein stability index; the bands are bin 1 (below 0.6), bin 2 (0.6 to below 0.7), bin 3 (0.7 or more)

INPUT: Note: place this sequence into its band. Item: LFFSFLFLATRC
OUTPUT: bin 1

INPUT: // query: GLLSLSGLRWFC
OUTPUT: bin 1

INPUT: Moving on to RSEIKKPIVIKT
OUTPUT: bin 1

INPUT: And for FFWGVFFLGLGW ?
OUTPUT: bin 1

INPUT: Can you check PPGLPPGPARPP next?
OUTPUT: bin 2

INPUT: # repeat for RCQILSYCLLFV
OUTPUT: bin 1

INPUT: Likewise for PPSPRFFPSFPP ?
OUTPUT: bin 3

INPUT: Same lookup for LFLFPVCFTNDL , please.
OUTPUT: bin 2

INPUT: # repeat for PPNPFPALRSSP
OUTPUT: bin 3

INPUT: // repeat for KKKGDKVGTKEQ and report
OUTPUT: bin 2
